- experimentNotes: chemical genetic growth profiling, strain panel (AID 1159580);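 note: tested at 20 µM; growth read once vehicle control cultures reached saturation at 30 °C; 1 = growth at the plate median or of vehicle wells; lower values mean less growth of the strain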
- conditionsUsed: S. cerevisiae deletion strains, growth OD, locus YOR080W, strain dia2, stronger effect = lower value
In all, about 5,500 compounds went through this assay and about 2,000 (36%) were called active. Another 18% or so got no clear call; they are omitted. The list shows a part of the results.
recordedEndpoint: normalized growth
Just the number, please, no unit after it.

Which normalized growth is reported for this compound? C[C@@H](CO)NC(=O)C1C=C2c3cccc4[nH]cc(c34)C[C@H]2N(C)C1 (stereo not given in full)
1.02

And `COc1cc(O)c2c(=O)cc(-c3ccc(OC)c(-c4c(O)cc(O)c5c(=O)cc(-c6ccc(O)cc6)oc45)c3)oc2c1` ?
1

Same for `COC(=O)NC(=S)Nc1ccccc1NC(=S)NC(=O)OC`
1.01

CC(=O)N1CCN(c2ccc(OCC3CO[C@](Cn4ccnc4)(c4ccc(Cl)cc4Cl)O3)cc2)CC1 (stereo not given in full) , same question.
0.096

And `C[N+]1(C)C[C@H](O)[C@H](C(=O)[O-])C1` ?
1.01

Could you do the same for `CC[C@@]1(O)C(=O)OCc2c1cc1n(c2=O)Cc2cc3cc(O)ccc3nc2-1` , please?
1.01

# repeat for CCCCCC(O)C1C(=O)OC(C)C(O)/C=C/C=C/C=C/C=C/C=C(\C)C(O)CC(O)CC(O)CC(O)CC(O)CC(O)CC1O (stereo not given)
0.976

Request: `Cc1cc(N)c2ccccc2[n+]1CCCCCCCCCC[n+]1c(C)cc(N)c2ccccc21`
0.0687

Can you check Oc1ccc2c3c1OC1[C@@H](O)CC[C@@]4(O)[C@@H](C2)N(CC2CCC2)CC[C@]314 (stereo not given in full) next?
0.988

---

- experimentNotes: chemical genetic growth profiling, strain panel (AID 1159580)
- conditionsUsed: S. cerevisiae deletion strains, growth OD, locus YOR083W, strain WHI5, stronger effect = lower value
About 2,000 (36%) of roughly 5,500 compounds were called active. Roughly 18% stayed inconclusive and do not appear here. This is one part of the list.
Measured normalized growth, listed per entry.

compound	normalized growth
CC1(C)C(O)CC(=O)C2(C)C1CC(O)C1(C)C2CCC2(C)C(c3ccoc3)OC(=O)C3OC321 (centres undefined)	1.01 (inactive)
CCCCCC(O)C1C(=O)OC(C)C(O)/C=C/C=C/C=C/C=C/C=C(\C)C(O)CC(O)CC(O)CC(O)CC(O)CC(O)CC1O (centres undefined)	1.01 (inactive)
CC(C)=CC1C(CO)C1(C)C (centres undefined)	1.01 (inactive)

State the recorded normalized growth for this entry: C/C=C/CC(C)C(O)C1C(=O)NC(CC)C(=O)N(C)CC(=O)N(C)C(CC(C)C)C(=O)NC(C(C)C)C(=O)N(C)C(CC(C)C)C(=O)NC(C)C(=O)NC(C)C(=O)N(C)C(CC(C)C)C(=O)N(C)C(CC(C)C)C(=O)N(C)C(C(C)C)C(=O)N1C (centres undefined)
1.02 (inactive)

---

- experimentNotes: chemical genetic growth profiling, strain panel (AID 1159580);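 note: tested at 20 µM; growth read once vehicle control cultures reached saturation at 30 °C; 1 = growth at the plate median or of vehicle wells; lower values mean less growth of the strain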
- conditionsUsed: S. cerevisiae deletion strains, growth OD, locus YMR205C, strain PFK2, stronger effect = lower value
The campaign covered roughly 5,500 compounds. About 2,000 (36%) were called active. Not shown: some 18% with an inconclusive outcome. The list shows a part of the results.
recordedEndpoint: normalized growth
No unit in the answer, please; the number alone is enough.

compound	value
O=C(CCCN1CCC(O)(c2ccc(Cl)cc2)CC1)c1ccc(F)cc1	0.949
COC1CC(O[C@H]2CC[C@]3(C=O)C4CC[C@]5(C)C(C6=CC(=O)OC6)CC[C@]5(O)C4CC[C@]3(O)C2)OC(C)C1O (stereo partly drawn)	0.984
OC1(c2ccc(Cl)c(C(F)(F)F)c2)CCN(CCCC(c2ccc(F)cc2)c2ccc(F)cc2)CC1	0.0884

Fill in the blank: the reported normalized growth of CC(=O)N1CCN(c2ccc(OCC3CO[C@](Cn4ccnc4)(c4ccc(Cl)cc4Cl)O3)cc2)CC1 (stereo partly drawn) is ____.
0.141

Okay, and `CC[C@@]1(O)C(=O)OCc2c1cc1n(c2=O)Cc2cc3ccccc3nc2-1` ?
0.798

Note, next up: C/C=C/CC(C)C(O)C1C(=O)NC(CC)C(=O)N(C)CC(=O)N(C)C(CC(C)C)C(=O)NC(C(C)C)C(=O)N(C)C(CC(C)C)C(=O)NC(C)C(=O)NC(C)C(=O)N(C)C(CC(C)C)C(=O)N(C)C(CC(C)C)C(=O)N(C)C(C(C)C)C(=O)N1C (stereo not drawn)
0.978

Proceed to Cc1c(OCC(F)(F)F)ccnc1CS(=O)c1nc2ccccc2[nH]1 (stereo not drawn)
1.04

Would you mind doing `O=C(CCCN1CCN(c2ccccn2)CC1)c1ccc(F)cc1` as well?
0.894

---

- experimentNotes: chemical genetic growth profiling, strain panel (AID 1159580);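 note: tested at 20 µM; growth read once vehicle control cultures reached saturation at 30 °C; 1 = growth at the plate median or of vehicle wells; lower values mean less growth of the strain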
- conditionsUsed: S. cerevisiae deletion strains, growth OD, locus YJL134W, strain LCB3
In all, about 5,500 compounds went through this assay and about 2,000 (36%) were called active. Roughly 18% stayed inconclusive and do not appear here. Cut-off read from the data, not from the text of the source: active = normalized growth mostly below about 0.91 (no sharp cut-off); inconclusive = no clear call, values can overlap the other calls; inactive = mostly above about 0.92. This is one part of the list.
The categories you may choose from are label 1 for active, label 0 for inactive

Examples from the recorded data:
molecule	assignedLabel
C[C@H]1OC(O[C@H]2[C@@H](O)CC(O[C@H]3[C@@H](O)C[C@H](O[C@H]4CC[C@]5(C)C6CC[C@]7(C)[C@@H](C8=CC(=O)OC8)[C@@H](O)C[C@]7(O)[C@@H]6CC[C@@H]5C4)O[C@@H]3C)O[C@@H]2C)C[C@H](O)C1O (some centres not stated)	label 0
Nc1nc(/C(=C/CC(=O)O)C(=O)N[C@@H]2C(=O)N3C(C(=O)O)=CCS[C@H]23)cs1	label 0
CC1=CC(=O)C(C(C)C)=CC1=O	label 0
CNC[C@H](O)c1cccc(O)c1	label 0
CC1=CC(=O)C2C(C)(C)CCC[C@]2(C)[C@@]1(O)CCc1ccoc1 (some centres not stated)	label 0
COc1c(O)cc2c(c1O)[C@H]1O[C@H](CO)[C@@H](O)[C@H](O)[C@@H]1OC2=O	label 0

Please find the next molecule below.
Per the assay record, what outcome was assigned to `CC(=O)Oc1ccccc1C(=O)Oc1ccccc1C(=O)O` ?
label 0

---

- experimentNotes: chemical genetic growth profiling, strain panel (AID 1159580);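 note: tested at 20 µM; growth read once vehicle control cultures reached saturation at 30 °C; 1 = growth at the plate median or of vehicle wells; lower values mean less growth of the strain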
- conditionsUsed: S. cerevisiae deletion strains, growth OD, locus YER015W, strain faa2, stronger effect = lower value
The campaign covered roughly 5,500 compounds. About 2,000 (36%) were called active. Roughly 18% stayed inconclusive and do not appear here. Some of the results follow.
recordedEndpoint: normalized growth
API note: the answer field is a bare number with no unit suffix.

Completed entries (count: 5):
compound	normalized growth
COC1CC(O[C@H]2CC[C@]3(C=O)C4CC[C@]5(C)C(C6=CC(=O)OC6)CC[C@]5(O)C4CC[C@]3(O)C2)OC(C)C1O (some centres undefined)	0.975
CC(C)c1cccc(O)c(=O)c1	0.0615
CC1(C)S[C@@H]2[C@H](NC(=O)[C@@H](N)c3ccc(O)cc3)C(=O)N2[C@H]1C(=O)O	0.998
COC1C(O)C(O[C@H]2CC[C@]3(C=O)C4C(CC[C@]3(O)C2)[C@@]2(O)CC[C@H](C3=CC(=O)OC3)[C@@]2(C)C[C@H]4OC(C)=O)OC(C)C1OC(C)=O (some centres undefined)	1
Nc1ccc(S(=O)(=O)Nc2ncccn2)cc1	0.994

Look at this compound and give its reported normalized growth. `CC(C)c1cccc(C(C)C)c1O`
0.983

Try this compound next: `Nc1nc(/C(=C/CC(=O)O)C(=O)N[C@@H]2C(=O)N3C(C(=O)O)=CCS[C@H]23)cs1`
1

Okay, and `Cc1c(C(N)=O)cc([N+](=O)[O-])cc1[N+](=O)[O-]` ?
1.01

Entry to check: `COc1cc2c(cc1OC)-c1c(oc3cc(O)cc(O)c3c1=O)CO2`
1.02

// next record COC(=O)C(N)CS (centres undefined)
0.997

And what about the compound `CCCc1nn(C)c2c(=O)[nH]c(-c3cc(S(=O)(=O)N4CCN(C)CC4)ccc3OCC)nc12` ?
0.994

Input CC(C)=CC1C(CO)C1(C)C (centres undefined)
1.02

Also C[C@H]1O[C@@H](O[C@H]2[C@@H](O)C[C@H](O[C@H]3[C@@H](O)C[C@H](O[C@H]4CC[C@]5(C)C6C[C@@H](O)[C@]7(C)[C@@H](C8=CC(=O)OC8)CC[C@]7(O)C6CC[C@@H]5C4)O[C@@H]3C)O[C@@H]2C)C[C@H](O)[C@@H]1O (some centres undefined) , if possible.
1.01

Lookup COC(=O)CC1C(C)(C)C(OC(C)=O)[C@@H]2[C@@H](OC(C)=O)[C@]34O[C@@]2(O)[C@]1(C)C3CC[C@]1(C)C4=CC(=O)O[C@H]1c1ccoc1 (some centres undefined)
1.01

Follow-up entry: C[C@]12CCC3C(CC[C@]4(O)C[C@@H](O)CC[C@]34C=O)[C@@]1(O)CCC2C1=CC(=O)OC1 (some centres undefined)
0.922

Queued: CCC(=O)OCC(=O)C1(OC(=O)CC)C(C)CC2C3CCC4=CC(=O)C=CC4(C)C3(Cl)C(O)CC21C (centres undefined)
0.986

Similarly, C[C@@H]1O[C@@H](O[C@H]2CC[C@]3(C=O)C4CC[C@]5(C)[C@@H](C6=CC(=O)OC6)CC[C@]5(O)C4CC[C@]3(O)C2)[C@H](O)[C@H](O)[C@H]1O (some centres undefined) ?
0.992

Also check CC1(C)Oc2ccc3ccc(=O)oc3c2CC1O (centres undefined)
0.968

Now consider NCC(O)CC(=O)O (centres undefined) .
0.986
